Every entry's value here was drawn from PubChem BioAssay (NCI).

- test_details: NCI Yeast Anticancer Drug Screen. Data for the bub3 strain (AID 167)
- test_parameters: S. cerevisiae bub3 mutant strain, at 50.0 µM, stronger effect = higher value
The panel holds about 79,000 compounds, 15% with a hit somewhere; the sample as a whole holds those more often.
measurement_label: growth inhibition (%)
Give bare numbers, in %.

In the examples that follow, each entry is paired with its recorded growth inhibition.
For reference, reported growth inhibition for CCOC(=O)C(C#N)=C1CCN(C)CC1 stands at -27.4

Form: compound = C[n+]1c(/C=C\C=C\N2CCCCC2)sc2ccccc21 ; growth inhibition = 31.6

So for N=C(N)c1nn(C2OC(CO)C(O)C2O)c2nc[nH]c(=O)c12 (centres undefined) , the logged growth inhibition turned out to be 5.7

Reported growth inhibition ( C[C@H](CCC[C@H](C)OS(=O)(=O)c1ccccc1)OS(=O)(=O)c1ccccc1 ) = -8.15

Value of measured growth inhibition for the entry N#Cc1ccc2nc[nH]c2c1 : -15.4

Dear reader, for each entry below, please note its growth inhibition.
1. COC1OC(CO)C(OC)C(O)C1O (centres undefined)
2. N#C/C(=C\c1ccc2c(c1)OCO2)c1ccccc1
3. C/C(O)=C(/C=N/C(=S)Nc1ccccc1)C(=O)Nc1ccccc1C
4. COc1cccc(C(=O)NNC(=O)c2cccc3ccccc23)c1
5. CC(=O)Nc1ncc(S(=O)(=O)c2ccc([N+](=O)[O-])cc2)s1
6. COC(=O)c1ccccc1C(=O)c1c(C)cc(C)cc1C
7. CCOC(C=O)OCC
8. CSCC[C@@H]1C(=O)N(C)[C@H](C(C)(C)C)N1C(=O)c1ccccc1

A.
-0.65
1.95
27.7
-34.2
-41.2
46.9
-4.3
44.7

Can you give me growth inhibition for all of these, one by one?
1. Cn1c(=O)c2[nH]c(CC(=O)O)nc2n(C)c1=O
2. NS(=O)(=O)c1cc(=O)[nH]c(=O)[nH]1

A.
1: 0.85; 2: -1.95

Take each entry in turn and give its growth inhibition.
1. Cc1cc(NC(=O)c2ccccc2)c(Cl)cc1N
2. CC1(C)OC(=O)CC1=O

A.
1. -21
2. 1.8

I have 3 compounds here; please give me growth inhibition for each one.
1. CC(=O)N(C)N=Nc1ccc(C)cc1
2. COC1OC(COC(C)=O)C(OC(C)=O)C(OC(C)=O)C1OC(C)=O (centres undefined)
3. c1ccc(Oc2c3ccccc3nc3ccccc23)cc1

A.
[0.1, 2.05, -5.7]

---

- test_details: NCI Yeast Anticancer Drug Screen. Data for the rad50 strain (AID 155);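 further: 0% = growth of vehicle-only cultures of the same strain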
- test_parameters: S. cerevisiae rad50 strain growth inhibition; at 50.0 µM; stronger effect = higher value
Compounds without any hit were thinned out: in the full panel of roughly 79,000, 15% have a hit.
Please go through the items and note down their growth inhibition.
Numbers only, in %.

Lab book: growth inhibition of NNC(=O)CCCCl noted as -10.5

growth inhibition reported for this compound C/C=C/C1OCC(CC)C(CCC)O1 (stereo not drawn) : 36

Memo: CCCc1cccc(CCC)c1NC(=O)Nc1cc(Cl)cc(Cl)c1 , reported growth inhibition: 37.5

Batch of 5 compounds: report growth inhibition for each.
1. Nc1ccc2c(c1)Cc1cc(N)c(N)cc1-2
2. Cc1ccc(NC(=O)c2ccccc2Cl)cc1
3. CC(=O)N(C(C)=O)c1ccc(C)cc1
4. C#CC(O)c1ccccc1 (stereo not drawn)
5. CC(=O)N(C)N=Nc1ccc(C)cc1

A.
1. 10.8
2. 12.4
3. -13.7
4. -2.4
5. 3.7

---

Exercise: state measured growth inhibition for each of the compounds provided.
- test_details: NCI Yeast Anticancer Drug Screen. Data for the mec2-1 strain (AID 157)
- test_parameters: S. cerevisiae mec2-1 strain, at 50.0 µM, stronger effect = higher value
This is part of a sample that, as a whole, favours compounds with a hit. Of some 79,000 tested, about 15% had one in any assay.
Give bare numbers, in %.

growth inhibition measured on Nc1cc(N)ncn1 = -18.9

growth inhibition reading for Cc1cc(CO)c(O)c(CO)c1 : -10.4

O=C(O)c1cccc(-n2ncc(Cl)c(Cl)c2=O)c1 has a reported growth inhibition of -0.95

Lab note: measured growth inhibition of CCOC(=O)c1cc(C)[nH]c(=O)c1C#N was -3.1

The following compounds each have a reported value; give each one's growth inhibition.
1. CCCOCc1cn[nH]n1
2. Cc1cc2c(C(C)C)c(O)c(O)c(C=Nc3ccccc3[N+](=O)[O-])c2c(O)c1-c1c(C)cc2c(C(C)C)c(O)c(O)c(C=Nc3ccccc3[N+](=O)[O-])c2c1O
3. CC(C)c1ccc(C(=O)OCCCl)cc1
4. C=CCc1cc(OC)c(O)c(OC)c1

A.
1. 5.25
2. -19.6
3. 9
4. 1.3

Respectfully, I request growth inhibition for each entry included below.
1. NC(=O)OCCO
2. NC(=O)NCCO
3. CC1CN(CCO)CC(C)O1 (stereo not drawn)
4. NNc1ncnc2c1ncn2C1OC(CO)C(O)C1O (stereo not drawn)
5. CC(=O)N=c1ccc2nc3c(cc(N)c4ccccc43)oc-2c1
6. CCCCCC/C=C\CCCCCCCCCc1cc(O)cc(OC)c1O
7. C[C@H](CCC[C@H](C)OS(=O)(=O)c1ccccc1)OS(=O)(=O)c1ccccc1

A.
6.45
4.1
-26.8
-12.8
13.2
4.45
-3.9

Give growth inhibition for all compounds that follow.
1. Oc1ccc(N=Cc2ccc(OCc3ccccc3)cc2)cc1
2. COC(=O)c1cccc([N+](=O)[O-])c1
3. CCOC(=O)C(CCC#N)(CCC#N)C(=O)OCC
4. CC(=O)NNC(=S)/N=C\C(C(=O)c1ccccc1)=C(/O)c1ccccc1
5. Nc1ncc([N+](=O)[O-])cn1
6. ClCC(Cl)C1CCC(Cl)C(Cl)C1 (stereo not drawn)
7. CC(C)C(C)(C)C(=O)C(C)(C)C(C)(C)C

A.
[-29.9, -5.7, 9.8, -28.8, -4.7, 6.1, -2.65]

Record growth inhibition for all entries; do not skip any.
1. CCCCCCCCCCC(=O)CCCCCCCCCC
2. NS(=O)(=O)c1cc(=O)[nH]c(=O)[nH]1

A.
[-12.2, -10.8]

---

- test_details: NCI Yeast Anticancer Drug Screen. Data for the cln2 rad14 strain (AID 165);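 further: 0% = growth equal to vehicle treated cultures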
- test_parameters: S. cerevisiae cln2 rad14 strain, at 50.0 µM, stronger effect = higher value
About 79,000 compounds went through this panel and 15% of them were active in at least one assay; those are over-represented in the sample as a whole.
Field: growth inhibition. Provide a value for each of the compounds that follow.
Numbers only, in %.

Summary for this compound, CCNC(=O)OCCc1c2ccccc2nc2ccccc12 : growth inhibition is 36.1

get_value(item= CCCCCC/C=C\CCCCCCCCCc1cc(O)cc(OC)c1O , readout=growth inhibition) returns -9.8

Input CN(C)Cc1ccccn1 . Output growth inhibition: -5.75

// field: growth inhibition; key: Cc1[nH]nc(C(N)=O)c1[N+](=O)[O-] ; value = -36.8

Recorded growth inhibition (compound O=[N+]([O-])c1ccc(-c2nc(N(CCO)CCO)c3ccccc3n2)o1 ): 72.5

Looking up O=S(Cc1ccccc1)/C(=C/NC(=S)Nc1cc(Cl)ccc1Cl)c1ccccc1 (stereo not drawn) , I found its growth inhibition recorded as 5.6

growth inhibition in this record for O=C(O)c1c[nH]c2ccccc2c1=O : -21.5

Reported growth inhibition of Cc1ccc(C2CCCCC2)cc1Br : 3.15

Dear colleague, could you please provide growth inhibition for the compounds listed below?
1. Cc1cccc2ccccc12
2. Oc1cccnc1CN1CCCC1
3. CC(=O)c1cccc(N(C)S(=O)(=O)c2ccc(C)cc2)c1
4. CC12CCC3c4ccc(O)cc4CCC3C1CCC2=O (stereo not drawn)
5. COc1c(CNC(=O)CCl)cc2[nH]c(C)cc2c1CNC(=O)CCl

A.
[24.4, 1.7, -31.2, 12.7, 2.2]

---

- test_details: NCI Yeast Anticancer Drug Screen. Data for the mec2-1 strain (AID 157)
- test_parameters: S. cerevisiae mec2-1 strain, at 50.0 µM, stronger effect = higher value
About 79,000 compounds went through this panel and 15% of them were active in at least one assay; those are over-represented in the sample as a whole.
measurement_label: growth inhibition (%)
Numbers only, in %.

The compound identified as CCOC(=O)c1ccc(NC(C)=O)o1 registered its growth inhibition at 11.3

# return growth inhibition for each item in the list
1. CCNC(=O)Oc1ccc[nH]c1=O
2. CN(CCCN(C)CCC1CCCCC1)CCC1CCCCC1

A.
-10.8
-1.05

---

- test_details: NCI Yeast Anticancer Drug Screen. Data for the mec2-1 strain (AID 157)
- test_parameters: S. cerevisiae mec2-1 strain, at 50.0 µM, stronger effect = higher value
- Method: Growth inhibition of yeast strains with defined genetic alterations is measured as a screen for potential anti-cancer activity. Selected strains with alterations in DNA damage repair or cell cycle control were exposed to compounds and growth inhibition was measured relative to vehicle treated controls. The strain used in this assay is mec2-1
The panel holds about 79,000 compounds, 15% with a hit somewhere; the sample as a whole holds those more often.
Would you kindly list growth inhibition for each of these molecules?
One number for each entry, in %.

I would be grateful if you could provide growth inhibition for each of the following entries.
1. O=C(NC(=S)N1CC=CCC1)c1ccccc1
2. Cn1c(=O)c2[nH]c(CCCCC(=O)O)nc2n(C)c1=O
3. Cc1cc(CC(=O)NCCO)n(CCO)c(=O)c1
4. OCCNc1ccccc1

A.
1: 16.7; 2: -13.2; 3: -21.5; 4: 11.4

Below are some molecules; for each one, tell me its growth inhibition.
1. CCCC(=O)CC(=O)c1ccccc1
2. COC(=O)c1ccc([N+](=O)[O-])c(C)c1
3. CS(=O)(=O)c1ccc(/C=C\C(=O)O)cc1
4. CC(C)Sc1ncnc2nc[nH]c12
5. COc1c(CNC(=O)CCl)cc2[nH]c(C)cc2c1CNC(=O)CCl
6. COc1cc(CC#N)c([N+](=O)[O-])cc1OC
7. O=C(O)c1ccccc1Cc1ccc2c(c1)CCCC2

A.
[10.4, -30.9, 7.1, 1.1, 4.95, -22.1, 12.2]
